Target: T1, hLig3 (human DNA ligase III beta) (human, UniProt P49916-2 88-949)
T1 sequence: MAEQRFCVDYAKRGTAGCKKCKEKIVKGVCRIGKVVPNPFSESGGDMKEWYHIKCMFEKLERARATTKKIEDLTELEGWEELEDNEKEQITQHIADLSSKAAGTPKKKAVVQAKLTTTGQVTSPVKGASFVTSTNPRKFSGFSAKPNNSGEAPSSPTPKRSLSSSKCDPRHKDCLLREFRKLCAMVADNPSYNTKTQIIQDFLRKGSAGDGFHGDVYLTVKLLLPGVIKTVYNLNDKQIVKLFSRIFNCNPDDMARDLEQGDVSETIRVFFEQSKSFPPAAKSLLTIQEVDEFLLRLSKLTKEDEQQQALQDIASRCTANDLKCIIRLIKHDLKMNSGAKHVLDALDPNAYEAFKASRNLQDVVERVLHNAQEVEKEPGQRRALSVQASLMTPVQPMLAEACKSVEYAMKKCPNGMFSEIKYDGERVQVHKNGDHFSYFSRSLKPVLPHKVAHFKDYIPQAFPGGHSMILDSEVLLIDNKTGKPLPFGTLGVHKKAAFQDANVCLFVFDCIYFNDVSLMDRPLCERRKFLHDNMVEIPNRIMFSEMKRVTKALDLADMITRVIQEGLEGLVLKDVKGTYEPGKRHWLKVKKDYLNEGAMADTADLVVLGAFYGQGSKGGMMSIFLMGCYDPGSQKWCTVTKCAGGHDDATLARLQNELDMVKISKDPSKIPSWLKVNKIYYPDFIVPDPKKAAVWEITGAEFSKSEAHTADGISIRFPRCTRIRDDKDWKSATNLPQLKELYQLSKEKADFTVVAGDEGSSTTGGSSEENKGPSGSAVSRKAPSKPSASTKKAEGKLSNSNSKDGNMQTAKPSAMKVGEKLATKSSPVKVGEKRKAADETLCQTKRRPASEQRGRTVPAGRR
Experiment: fluorescence anisotropy; 10 mM MgCl2, 1 mM ATP; T4 DNA ligase reaction buffer: 50 mM Tris-HCl pH 7.5 (25°C), 1 mM ATP, 10 mM MgCl2; 750 pM-4 nM DNA; anisotropy temperature not stated
Conditions: protein: recombinant; tags: N-terminal His6; label: 3'-FAM on one strand; blunt
MEASUREMENT_KIND: Kd (nM)
Form entry: value (nM) — number only.

Sure, the documented Kd for Anisotropy 24mer dsDNA (dsDNA) DNA 1: GATCGTCCTTGGTGATCATGCATC DNA 2: GATGCATGATCACCAAGGACGATC is 3.8
